Reference source: patent US5095012A

Below are compounds with their log10(MIC) as measured on E. coli Juhl.
quantityName: log10(MIC) (log10 of the value in µg/mL)

compound	log10(MIC)
Nc1nc(/C(=N/OCc2cc(O)c(O)cc2C(=O)O)C(=O)NC2C(=O)N3C(C(=O)[O-])=C(/C=C/C[n+]4ccccc4)CSC23)cs1 (centres unmarked) [Id]	-1.00
C[N+]1(CC2=C(C(=O)[O-])N3C(=O)C(NC(=O)/C(=N\OC(C(=O)O)c4ccc(O)c(O)c4)c4csc(N)n4)[C@H]3SC2)Cc2cc(O)c(O)cc2C1 (some centres unmarked) [Ie]	-0.10
C/C=C\C1=C(C(=O)O)N2C(=O)C(NC(=O)/C(=N\OC(C(=O)O)c3ccc(O)c(O)c3)c3csc(N)n3)C2SC1 (centres unmarked) [Ib]	-0.40
Nc1nc(/C(=N/OC(C(=O)O)c2ccc(O)c(O)c2)C(=O)NC2C(=O)N3C(C(=O)[O-])=C(/C=C/C[n+]4ccccc4)CSC23)cs1 (centres unmarked) [Ic]	-1.30
C[N+]1(CC2=C(C(=O)[O-])N3C(=O)C(NC(=O)C(=NOC(C(=O)O)c4ccc(O)c(O)c4)c4csc(N)n4)C3SC2)CCCC1 (centres unmarked) [Ia]	-0.70

====

Tested on: Cephalothin(CET)-sensitive E. coli (2), Kl. pneumoniae (1) and Pr. mirabilis (2)

compound	testedSystem	MIC (µg/mL)
C/C=C\C1=C(C(=O)O)N2C(=O)C(NC(=O)/C(=N\OC(C(=O)O)c3ccc(O)c(O)c3)c3csc(N)n3)C2SC1 (centres unmarked)	Cephalothin(CET)-sensitive E. coli (2), Kl. pneumoniae (1) and Pr. mirabilis (2)	0.17
C[N+]1(CC2=C(C(=O)[O-])N3C(=O)C(NC(=O)/C(=N\OC(C(=O)O)c4ccc(O)c(O)c4)c4csc(N)n4)[C@H]3SC2)Cc2cc(O)c(O)cc2C1 (some centres unmarked)	Cephalothin(CET)-sensitive E. coli (2), Kl. pneumoniae (1) and Pr. mirabilis (2)	0.46
Nc1nc(/C(=N/OC(C(=O)O)c2ccc(O)c(O)c2)C(=O)NC2C(=O)N3C(C(=O)[O-])=C(/C=C/C[n+]4ccccc4)CSC23)cs1 (centres unmarked)	Cephalothin(CET)-sensitive E. coli (2), Kl. pneumoniae (1) and Pr. mirabilis (2)	0.076
Nc1nc(/C(=N/OCc2cc(O)c(O)cc2C(=O)O)C(=O)NC2C(=O)N3C(C(=O)[O-])=C(/C=C/C[n+]4ccccc4)CSC23)cs1 (centres unmarked)	Cephalothin(CET)-sensitive E. coli (2), Kl. pneumoniae (1) and Pr. mirabilis (2)	0.087
C[N+]1(CC2=C(C(=O)[O-])N3C(=O)C(NC(=O)C(=NOC(C(=O)O)c4ccc(O)c(O)c4)c4csc(N)n4)C3SC2)CCCC1 (centres unmarked)	Cephalothin(CET)-sensitive E. coli (2), Kl. pneumoniae (1) and Pr. mirabilis (2)	0.3

====

Tested on: P. aeruginosa A9843A
assayNotes: MIC against P. aeruginosa A9843A
Type: cell-based
conditionNotes: Pseudomonas aeruginosa, read-out: MIC, P. aeruginosa A9843A
Each item that follows carries a reported MIC.
quantityName: MIC (µg/mL)

compound	testedSystem	unitLabel	valueMeasured
C[N+]1(CC2=C(C(=O)[O-])N3C(=O)C(NC(=O)/C(=N\OC(C(=O)O)c4ccc(O)c(O)c4)c4csc(N)n4)[C@H]3SC2)Cc2cc(O)c(O)cc2C1 (some centres unmarked)	P. aeruginosa A9843A	µg/mL	0.4
Nc1nc(/C(=N/OCc2cc(O)c(O)cc2C(=O)O)C(=O)NC2C(=O)N3C(C(=O)[O-])=C(/C=C/C[n+]4ccccc4)CSC23)cs1 (centres unmarked)	P. aeruginosa A9843A	µg/mL	0.8
C[N+]1(CC2=C(C(=O)[O-])N3C(=O)C(NC(=O)C(=NOC(C(=O)O)c4ccc(O)c(O)c4)c4csc(N)n4)C3SC2)CCCC1 (centres unmarked)	P. aeruginosa A9843A	µg/mL	1.6
Nc1nc(/C(=N/OC(C(=O)O)c2ccc(O)c(O)c2)C(=O)NC2C(=O)N3C(C(=O)[O-])=C(/C=C/C[n+]4ccccc4)CSC23)cs1 (centres unmarked)	P. aeruginosa A9843A	µg/mL	3.1
C/C=C\C1=C(C(=O)O)N2C(=O)C(NC(=O)/C(=N\OC(C(=O)O)c3ccc(O)c(O)c3)c3csc(N)n3)C2SC1 (centres unmarked)	P. aeruginosa A9843A	µg/mL	3.1
